System: rat aorta
Assay: Rat aorta angiogenesis assay (vessel outgrowth from aorta fragments in fibrin gel)
Assay type: cell-based
Conditions: Table 3; Assay 5; testing at 10 μg/mL
Catalogue of % Inhibition readings, one per entry.

{"columns": ["Compound", "Unit abbreviation", "% Inhibition"],
 "data": [
  ["CC(=O)N[C@H]1[C@H](O[C@H]2[C@H](O)[C@@H](NC(C)=O)[C@H](O[C@H]3[C@H](O)[C@@H](NC(C)=O)C(O)O[C@@H]3CO[C@@H]3O[C@@H](C)[C@@H](O)[C@@H](O)[C@@H]3O)O[C@@H]2CO)O[C@H](CO)[C@@H](O[C@@H]2O[C@H](CO)[C@@H](O[C@@H]3O[C@H](CO)[C@@H](O)[C@H](O)[C@H]3NC(=O)Cc3ccccc3)[C@H](O)[C@H]2NC(C)=O)[C@@H]1O (some centres unmarked) [Compound 24]", "%", 1],
  ["CC(=O)N[C@H]1C(O)O[C@H](CO)[C@@H](O[C@@H]2O[C@H](CO)[C@@H](O)[C@H](O)[C@H]2N)[C@@H]1O (some centres unmarked) [Compound 22]", "%", 16]
]}
